Molecular target: Recombinant human his-tagged IGF 1R extracellular domain protein (human) (UniProt P08069)
Assay: SPR, captured antibody, pH 7.4
Property label: koff (s⁻¹)
Write the answer as a number in s⁻¹, unit excluded.

VRDN-03128 (antibody, V domains shown) VH: EVQLVESGGGVVQPGRSLRLSCAASGFTFSDYTMHWVRQAPGKGLEWVAIIWFDGSSKYYPGSVKGRFTISRDNSKNTLYLQMNSLRAEDTAVYYCARELGRRYFDIWGRGTLVTVSS VL: EIVMTQSPATLSVSPGERATLSCRASQGVSSNLAWYQQKPGQAPRLLIYGASTRATGIPARFSGSGSGTEFTLTISSLQSEDFAVYYCQQRSRWPPWTFGGGTKLEIK	0.00241
VRDN-03113 (antibody, V domains shown) VH: QVQLVESGGGVVQPGRSLRLSCAASGFTFSDHYMDWVRQAPGKGLEWVAIIWFDGSSKYYADSVKGRFTISRDNSKNTLYLQMNSLRAEDTAVYYCARELGRRYFDIWGRGTLVTVSS VL: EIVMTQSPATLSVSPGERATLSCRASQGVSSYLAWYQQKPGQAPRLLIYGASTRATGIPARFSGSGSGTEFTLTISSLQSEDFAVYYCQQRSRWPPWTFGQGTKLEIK	0.00388
VRDN-03105 (antibody, V domains shown) VH: QVQLVESGGGVVQPGRSLRLSCAASGFTFSDHYMDWVRQAPGKGLEWVAIIWFDGSSKYYVDSVKGRFTISRDNSKNTLYLQMNSLRAEDTAVYYCARELGRRYFDIWGRGTLVTVSS VL: EIVLTQSPATLSLSPGERATLSCRASQGVSSYLAWYQQKPGQAPRLLIYGASTRATGIPARFSGSGSGTDFTLTISSLEPEDFAVYYCQQRSRWPPWTFGQGTKLEIK	0.000361

Prompt: Request the reported koff associated with VRDN-03041 (antibody, V domains shown) VH: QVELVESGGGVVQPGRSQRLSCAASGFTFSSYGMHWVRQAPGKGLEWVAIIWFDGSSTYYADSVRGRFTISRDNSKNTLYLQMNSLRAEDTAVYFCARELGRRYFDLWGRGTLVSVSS VL: EIVLTQSPATLSLSPGERATLSCRASHSVSSYLAWYQQKPGQAPRLLIYDASKRATGIPARFSGSGSGTDFTLTISSLEPEDFAVYYCQQRSKWPPWTFGQGTKVESK
Response: 0.0003

Prompt: Which koff reading was recorded for the binder VRDN-03114 (antibody, V domains shown) VH: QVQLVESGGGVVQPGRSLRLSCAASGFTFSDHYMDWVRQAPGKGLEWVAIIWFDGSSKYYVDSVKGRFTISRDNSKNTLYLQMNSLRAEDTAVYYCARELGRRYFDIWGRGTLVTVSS VL: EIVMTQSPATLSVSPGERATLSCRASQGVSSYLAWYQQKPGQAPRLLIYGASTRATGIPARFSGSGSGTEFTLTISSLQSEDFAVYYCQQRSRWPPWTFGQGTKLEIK ?
Response: 0.000991

Data origin: patent US20240352133A1
